Attribute: pEC50
molecular target: Peroxisome proliferator-activated receptor gamma (Homo sapiens); assay: Agonist activity at GAL4 tagged human PPARgamma ligand binding domain expressed in HEK293 cells by luciferase reporter gene assay
Sequence (P37231 whole entry, the tested form may be a part): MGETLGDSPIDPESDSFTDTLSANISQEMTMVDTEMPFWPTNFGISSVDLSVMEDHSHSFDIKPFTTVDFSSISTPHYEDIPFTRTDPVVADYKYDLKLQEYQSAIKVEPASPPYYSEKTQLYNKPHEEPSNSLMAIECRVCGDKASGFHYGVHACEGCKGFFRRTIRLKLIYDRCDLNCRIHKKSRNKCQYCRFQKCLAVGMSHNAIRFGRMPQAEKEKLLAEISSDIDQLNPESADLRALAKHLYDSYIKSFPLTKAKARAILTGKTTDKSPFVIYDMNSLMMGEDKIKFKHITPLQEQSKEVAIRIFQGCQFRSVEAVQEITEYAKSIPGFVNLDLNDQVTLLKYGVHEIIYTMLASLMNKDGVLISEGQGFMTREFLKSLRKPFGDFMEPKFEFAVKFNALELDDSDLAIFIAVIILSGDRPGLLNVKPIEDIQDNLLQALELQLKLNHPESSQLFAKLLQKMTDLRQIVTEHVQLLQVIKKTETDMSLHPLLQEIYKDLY
By convention, pEC50 is the negative base-10 log of a molar concentration.

Request: So what's the measured pEC50 for this one? Cc1oc(-c2ccccc2)nc1CCOc1cccc([C@@H]2CN(C(=O)Oc3ccccc3)C[C@@H]2C(=O)O)c1 (racemic)
Result: 5.25

Request: Try Cc1oc(-c2ccccc2)nc1CCOc1cccc(C[C@@H]2CN(C(=O)Oc3ccccc3)C[C@@H]2C(=O)O)c1 (racemic) next.
Result: 5.90

Request: Try Cc1oc(-c2ccccc2)nc1CCOc1ccc([C@@H]2CN(C(=O)Oc3ccccc3)C[C@@H]2C(=O)O)cc1 (racemic) next.
Result: 5.38

Request: Try Cc1oc(-c2ccccc2)nc1CCOc1ccc(C[C@@H]2CN(c3nc4ccccc4o3)C[C@@H]2C(=O)O)cc1 (racemic) next.
Result: 5.68

Request: Try Cc1oc(-c2ccccc2)nc1CCOc1ccc([C@H]2CN(C(=O)Oc3ccccc3)C[C@@H]2C(=O)O)cc1 (racemic) next.
Result: 8.00

Request: Try CCOC(=O)N1C[C@H](C(=O)O)[C@H](c2cccc(OCCc3nc(-c4ccccc4)oc3C)c2)C1 (racemic) next.
Result: 4.62

Request: Try Cc1oc(-c2ccccc2)nc1CCOc1ccc(C[C@@H]2CN(c3ncccn3)C[C@@H]2C(=O)O)cc1 (racemic) next.
Result: 5.97

Request: Try Cc1oc(-c2ccccc2)nc1CCOc1ccc(CC[C@@H]2CN(C(=O)Oc3ccccc3)C[C@@H]2C(=O)O)cc1 (racemic) next.
Result: 6.80

Request: Try CCOC(=O)N1C[C@H](CC(=O)O)[C@@H](c2cccc(OCCc3nc(-c4ccccc4)oc3C)c2)C1 (racemic) next.
Result: 5.01

====

biological target: Peroxisome proliferator-activated receptor gamma (Homo sapiens)
Attribute: pIC50
By convention, pIC50 is the negative base-10 log of a molar concentration.

Consider the following illustrative entries.
{"molecule": "Cc1oc(-c2ccccc2)nc1CCOc1ccc([C@@H]2CN(C(=O)Oc3ccccc3)C[C@@H]2CC(=O)O)cc1 (racemic)", "quantity.name": "pIC50", "data.value": 5.08}
{"molecule": "Cc1oc(-c2ccccc2)nc1CCOc1ccc([C@@H]2CN(C(=O)Oc3ccccc3)C[C@@H]2C(=O)O)cc1 (racemic)", "quantity.name": "pIC50", "data.value": 5.35}
{"molecule": "Cc1oc(-c2ccccc2)nc1CCOc1cccc(C[C@@H]2CN(C(=O)Oc3ccccc3)C[C@@H]2C(=O)O)c1 (racemic)", "quantity.name": "pIC50", "data.value": 5.88}
{"molecule": "Cc1oc(-c2ccccc2)nc1CCOc1ccc(C[C@@H]2CN(c3nccc(C(F)(F)F)n3)C[C@H]2C(=O)O)cc1", "quantity.name": "pIC50", "data.value": 5.94}
{"molecule": "Cc1oc(-c2ccccc2)nc1CCOc1cccc(C[C@H]2CN(C(=O)Oc3ccccc3)C[C@@H]2C(=O)O)c1 (racemic)", "quantity.name": "pIC50", "data.value": 5.44}
{"molecule": "Cc1oc(-c2ccccc2)nc1CCOc1ccc(C[C@H]2CN(c3nccc(C(F)(F)F)n3)C[C@@H]2C(=O)O)cc1", "quantity.name": "pIC50", "data.value": 5.45}

Please examine the following record next.
Request: So what's the measured pIC50 for this one? Cc1oc(-c2ccccc2)nc1CCOc1cccc(CC[C@H]2CN(C(=O)Oc3ccccc3)C[C@@H]2C(=O)O)c1 (racemic)
Result: 6.28
